Each recorded value in this set is attributed to PubChem BioAssay (Tox21).

RUN DESCRIPTION: qHTS assay to identify aromatase inhibitors - cell viability counter screen (AID 743084);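 also: cells stimulated with testosterone during compound exposure; nearly all actives have a fitted effect of over 55% in size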
MEASUREMENT SETUP: MCF-7 aro ERE viability, CellTiter-Fluor, 24 h; series mostly up to 70.3 µM
Inconclusive results are not listed. The source made the active and inactive calls. Calls follow the shape of the dose curve; as a rule, active = well fitted cell-killing curve with a large enough effect in the repeat runs; inconclusive = weak or mixed curves, or effect the other way; inactive = no such curve, though single readings can be large or run the other way.
One label from this list, please: active, inactive

Some solved entries appear below for comparison.
NC(=O)c1cc[n+](CC2=C(C(=O)O)N3C(=O)[C@@H](NC(=O)C(c4ccccc4)S(=O)(=O)[O-])[C@H]3SC2)cc1 (stereo partly drawn)	inactive
Cc1c(N)nc([C@H](CC(N)=O)NC[C@H](N)C(N)=O)nc1C(=O)N[C@H](C(=O)N[C@H](C)[C@@H](O)[C@H](C)C(=O)N[C@H](C(=O)NCCc1nc(-c2nc(C(=O)NCCCCN=C(N)N)cs2)cs1)[C@@H](C)O)[C@@H](O[C@@H]1O[C@@H](CO)[C@@H](O)[C@H](O)[C@@H]1O[C@H]1O[C@H](CO)[C@@H](O)[C@H](OC(N)=O)[C@@H]1O)c1cnc[nH]1	inactive
CC(C)(COP(=O)(O)OP(=O)(O)OC[C@H]1O[C@@H](n2cnc3c(N)ncnc32)[C@H](O)[C@@H]1OP(=O)(O)O)C(O)C(=O)NCCC(=O)NCCS (stereo partly drawn)	inactive

Query block: Fill in: this test's call for O=[N+]([O-])c1ccc(O)c2ncccc12 is ___
Result block: active

Query block: Fill in: this test's call for CC[C@H](C)C(=O)O[C@H]1CCC=C2C=C[C@H](C)[C@H](CC[C@@H]3C[C@@H](O)CC(=O)O3)[C@H]21 is ___
Result block: inactive

Query block: Fill in: this test's call for CN[C@H](CC(C)C)C(=O)N[C@H]1C(=O)N[C@@H](CC(N)=O)C(=O)N[C@H]2C(=O)N[C@H]3C(=O)N[C@H](C(=O)N[C@@H](C(=O)O)c4cc(O)cc(O)c4-c4cc3ccc4O)[C@H](O)c3ccc(c(Cl)c3)Oc3cc2cc(c3O[C@@H]2O[C@H](CO)[C@@H](O)[C@H](O)[C@H]2O[C@H]2C[C@](C)(N)C(O)[C@H](C)O2)Oc2ccc(cc2Cl)[C@H]1O (stereo partly drawn) is ___
Result block: inactive

Query block: Fill in: this test's call for CN(C[C@@H](CC[N+]12CCC(C3CCCCC3)(CC1)CC2)c1ccc(Cl)c(Cl)c1)C(=O)c1cc(C(F)(F)F)cc(C(F)(F)F)c1 is ___
Result block: active

Query block: Fill in: this test's call for Cc1cc(C(=O)NCCc2ccc(S(=O)(=O)NC(=O)NN3CCCCCC3)cc2)no1 is ___
Result block: inactive
